Target: T1, human CD73 (human, UniProt P21589 27-547, limits assumed)
T1 construct: also called control antigen
T1 sequence (looked up): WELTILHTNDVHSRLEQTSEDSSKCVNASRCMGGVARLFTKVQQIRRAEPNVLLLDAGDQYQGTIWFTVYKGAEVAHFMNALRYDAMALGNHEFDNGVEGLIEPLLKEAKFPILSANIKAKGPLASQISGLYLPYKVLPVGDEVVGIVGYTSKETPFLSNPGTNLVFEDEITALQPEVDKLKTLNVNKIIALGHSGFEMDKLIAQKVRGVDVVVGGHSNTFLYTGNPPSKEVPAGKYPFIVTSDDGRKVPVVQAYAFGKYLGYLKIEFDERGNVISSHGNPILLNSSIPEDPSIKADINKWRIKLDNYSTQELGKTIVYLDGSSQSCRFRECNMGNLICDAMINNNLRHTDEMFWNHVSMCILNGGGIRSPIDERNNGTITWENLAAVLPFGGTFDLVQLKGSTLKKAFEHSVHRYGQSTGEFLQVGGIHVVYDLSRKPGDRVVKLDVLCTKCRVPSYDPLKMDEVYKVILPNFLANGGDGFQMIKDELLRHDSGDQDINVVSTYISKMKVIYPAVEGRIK
Assay: ELISA on control antigen human CD73, B cell culture supernatant, 2nd screening
Record form. Attribute: Optical Density (Anti-CD73 reactivity, 2nd screening). Fill in for each entry.
One number for each entry, in OD.

// below: answered binders
[
  {
    "binder": "178F16 (rabbit anti-MSLN mAb) (antibody, V domains shown) VH: QSLEESGGRLVTPGTPLTLTCTASGFSLSNYAMTWVRQAPGKGLEYIGIISTGGITYYMDSAKGRFTISRTSTTVDLKMTSLTTEDTATYFCGRNAGGSYIFYYFDLWGQGTLVTVSS VL: AFELTQTPSSVEAAVGGTVTIKCQASQSIYSYLAWYQQKPGQPPKLLIYSASTLASGVSSRFRGSGSGTEYILTISDLECADAATYYCQTYYDIVTSTFGGGTEVVVK",
    "unit_spec": "OD",
    "measurement": 0.141
  },
  {
    "binder": "324O5 (rabbit anti-MSLN mAb) (antibody, V domains shown) VH: QSLEESGGRLVTPGTPLTLTCTASGFSLSNYAMTWVRQAPGKGLEYIGIISTGGITYYMDSAKGRFTISRTSTTVDLKMTSLTTEDTATYFCGRNAGGSYIFYYFDLWGQGTLVTVSS VL: AFELTQTPSSVEAAVGGTVTIKCQASQSIYSYLAWYQQKPGQPPKLLIYSASTLASGVSSRFRGSGSGTEYTLTISDLECADAATYYCQTYYDIVTSTFGGGTEVVVK",
    "unit_spec": "OD",
    "measurement": 0.0801
  },
  {
    "binder": "383I18 (rabbit anti-MSLN mAb) (antibody, V domains shown) VH: QSVEESGGRLVTPGTPLTLTCTVSGFSLSSYAMGWVRQAPGEGLEWIGTISTGGITYYASWAKGRFTISKTSTTVDLKITSPTTEDTATYFCARVGSSGYLFYFFNLWGQGTLVTVSS VL: VFELTQTPSPVSAAVGGTVTIRCQASQNIKSYLAWYQQKPGQPPKLLIYEASILASGVSSRFKGSGSGTEFTLTISDLECADAATYYCQSYYAASSNAFGGGTEVVVK",
    "unit_spec": "OD",
    "measurement": 0.0744
  }
]

// switching to the query binder
Given the binder 33O11 (rabbit anti-MSLN mAb) (antibody, V domains shown) VH: QSVEESGGRLVTPGTPLTLTCTVSGISLSSDAISWVRQAPGKGLEYIGIINGGGNTYYASWAKGRFTISKTSTTVDLKITSPTTEDTATYFCARGIQHGGGNSDYYYYGMDLWGPGTLVTVSS VL: EVLMTQTPSSVSAAVGDTVTIKCQASQSISSVLSWYQQKPGQPPKLLIYLASTLASGVPSRFSGSRSGTEFTLTISDLECDDAATYYCQTNYGTSSSNYGFAFGGGTEVVVK , what is its reported Optical Density (Anti-CD73 reactivity, 2nd screening)?
0.0818
